# assayName: A CellTox Green Cytotoxicity Assay to monitor cytotoxicity in HepG2 cells - 16 hour (AID 1224876); further: nearly all actives have a fitted effect of over 45% in size
# appliedConditions: CellTox Green fluorescence; series mostly up to 76.8 µM
Results filed as inconclusive are left out. The source made the active and inactive calls. The call rests on the fitted dose curve; in most records, active means well fitted activation curve with a large enough effect in the repeat runs; inconclusive means weak or mixed curves; inactive means flat fitted curve, though single readings scatter.
In this exercise, the only acceptable responses are active, inactive

Solved entries:
CCCCC(CC)COCC1CO1 (stereo not drawn) | inactive
C[C@]12CC[C@H]3[C@@H](CCC4=CC(=O)CC[C@@]43C)[C@@H]1CC[C@@H]2C(=O)CO | inactive
CC(C)Oc1ccc2c(=O)c(-c3ccccc3)coc2c1 | inactive

Given CCCCc1oc2ccccc2c1C(=O)c1cc(I)c(OCCN(CC)CC)c(I)c1 , state the outcome it received in this test. active
